Test: Metabolic stability in human liver microsomes assessed as half life
Format: ADME, Microsome
measured-property: half-life

In one line, give reported half-life of the entry Cc1cc(Sc2nnnn2CCN(C)C)n2nc(SCc3ccc(Cl)cc3)nc2n1.Cl .
< 5 min

###

Assay: Metabolic stability in rat liver microsomes assessed as half life
Type: ADME, Microsome
measured-property: half-life

Consider the molecule Cc1cc(Sc2nnnn2CCN(C)C)n2nc(SCc3ccc(Cl)cc3)nc2n1.Cl and give its recorded half-life.
< 5 min

###

Test: Metabolic stability in dog liver microsomes assessed as intrinsic clearance
Type: ADME, Canis lupus familiaris, Microsome
Conditions: read-out: CLH
measured-property: CLint scaled (L/h/kg)
Just the number in L/h/kg, nothing appended.

Return CLint scaled for the following molecule: Cc1cc(Sc2nnnn2CCN(C)C)n2nc(SCc3ccc(Cl)cc3)nc2n1.Cl
41.5
